Cited source for all entries: patent US20190367606A1

# measurement target: T1, human podocalyxin (human, UniProt O00592 23-558)
# T1 construct: also called hPodo; hPodocalyxin
# T1 sequence: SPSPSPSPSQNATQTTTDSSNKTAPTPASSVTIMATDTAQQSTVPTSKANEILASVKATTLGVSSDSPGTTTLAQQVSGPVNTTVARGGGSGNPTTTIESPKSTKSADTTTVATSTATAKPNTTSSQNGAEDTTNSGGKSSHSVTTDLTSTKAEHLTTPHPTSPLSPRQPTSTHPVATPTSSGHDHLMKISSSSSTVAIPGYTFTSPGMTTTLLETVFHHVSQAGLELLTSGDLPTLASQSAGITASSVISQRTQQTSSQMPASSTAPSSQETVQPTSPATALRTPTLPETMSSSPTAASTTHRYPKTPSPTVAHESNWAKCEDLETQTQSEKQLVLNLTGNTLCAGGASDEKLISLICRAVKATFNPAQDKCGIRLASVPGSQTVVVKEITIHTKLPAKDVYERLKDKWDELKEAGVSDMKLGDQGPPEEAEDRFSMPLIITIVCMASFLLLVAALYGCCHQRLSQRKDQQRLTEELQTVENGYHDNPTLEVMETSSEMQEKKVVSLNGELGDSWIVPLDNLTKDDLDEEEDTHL
# assay text: flow cytometry, supernatant 1:5, MDA-MB-231 cells
metric: flow cytometry fluorescence (name not given)

binder: huPodo 83 1:1 (humanized anti-podocalyxin antibody 83, version 1) (antibody, V domains shown, Cloned into pTT5 plasmids with human IgG heavy chain and human Ig kappa constant regions) VH: EVQLVESGGGLVQPGGSLRLSCAASGIDLSSYAMGWVRQAPGKGLEWVSFIYASGSIFYASWAKGRFTISRDNSKNTLYLQMNSLRAEDTAVYYCARAGYYFGGNYDLNLWGQGTLVTVSS VL: DIQMTQSPSSLSASVGDRVTITCQASQSISNYLAWYQQKPGKVPKLLIYRASTLASGVPSRFSGSGSGTDFTLTISSLQPEDVATYYCQQGYVSNNLDNIFGGGTEVVVK
recorded value: 112000
//
binder: huPodo 83 2:1 (humanized anti-podocalyxin antibody 83, version 2) (antibody, V domains shown, Cloned into pTT5 plasmids with human IgG heavy chain and human Ig kappa constant regions) VH: EVQLVESGGGLVQPGGSLRLSCAASGIDLSSYAMGWVRQAPGKGLEWVSFIYASGSIFYASWAKGRFTISRDNSNTLYLQMNSLRAEDTAVYYCARAGYYFGGNYDLNLWGQGTLVTVSS VL: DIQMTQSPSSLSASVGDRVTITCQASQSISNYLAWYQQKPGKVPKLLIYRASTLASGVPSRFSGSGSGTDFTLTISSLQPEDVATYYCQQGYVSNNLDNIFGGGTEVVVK
recorded value: 105000
//
binder: Rb VH, Vk 1:1 (Podo 83 rabbit VH, human CH1-CH3, human Ck, and humanized Vk) (antibody, V domains shown, Human CH1-CH3 and human Ck) VH: QSLAESGGRLVTPGTPLTLTCTASGIDLSSYAMGWVRQAPGKGLEYIGFIYASGSIFYASWAKGRFTISKTSSTTVDLKMTSLTTEDTATYFCARAGYYFGGNYDLNLWGQGTLVTVSS VL: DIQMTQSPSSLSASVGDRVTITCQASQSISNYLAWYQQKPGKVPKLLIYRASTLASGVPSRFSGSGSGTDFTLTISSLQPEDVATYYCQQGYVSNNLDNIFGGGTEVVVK
recorded value: 115000
//
binder: Rb/Hu Podo83 (Podo83 rabbit VH and VL, human IgG1 chimera) (antibody, V domains shown, Rabbit variable domains cloned into human IgG1 and human Ig kappa constant region constructs (pTT5/IgG1, pTT5/Igk); also called anti-PODO; Ab-1) VH: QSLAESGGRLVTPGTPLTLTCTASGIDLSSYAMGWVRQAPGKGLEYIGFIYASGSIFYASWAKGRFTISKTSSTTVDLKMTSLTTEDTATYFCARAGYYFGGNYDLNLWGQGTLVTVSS VL: DIVLTQTPASVEVAVGGTVTIKCQASQSISNYLAWYQRKPGQPPRLLIYRASTLASGVSSRFKGSGSGTQFTLTISGVECADAATYYCQQGYVSNNLDNIFGGGTEVVVK
recorded value: 121000
//
binder: Rabbit Podo 83 (Parental rabbit antibody) (antibody, V domains shown, Rabbit constant regions; also called Rb Podo 83 (Rb Constant Region); rabbit Podo-83 (Ab-1)) VH: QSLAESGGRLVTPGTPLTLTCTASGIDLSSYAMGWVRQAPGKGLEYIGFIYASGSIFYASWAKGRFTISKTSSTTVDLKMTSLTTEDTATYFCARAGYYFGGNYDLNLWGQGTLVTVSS VL: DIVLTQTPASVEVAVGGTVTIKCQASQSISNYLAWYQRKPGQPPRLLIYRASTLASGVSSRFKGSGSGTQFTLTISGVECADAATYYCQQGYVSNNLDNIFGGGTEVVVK
recorded value: 129000
